- System: A498 renal
- test protocol: NCI-60 one-dose screen, 48 h (100 = growth as untreated, 0 = no growth, -100 = all killed)
- test parameters: 10 µM unless noted
About 83,000 compounds went through this panel and 20% of them were active in at least one assay; those are over-represented in the sample as a whole.
quantity kind: growth (%)
One number for each entry, in %.

compound: O=C1CC(C(F)(F)F)Cc2nc3ccc(Br)cc3cc21 (stereo unspecified)
system tested: A498 renal
result unit: %
numeric readout: 49.7
//
compound: CCOc1ccccc1/C=N\Nc1ccc(S(=O)(=O)c2ccc(N/N=C/c3ccccc3OCC)cc2)cc1
system tested: A498 renal
result unit: %
numeric readout: 113
//
compound: CCOC(=O)c1c[nH]c2cc(OCC3CC3)c(OCC3CC3)cc2c1=O
system tested: A498 renal
result unit: %
numeric readout: 94.1
//
compound: O=c1c2c3c(sc2n2cnnc2n1Cc1ccccc1)CCCC3
system tested: A498 renal
result unit: %
numeric readout: 92.1
//
compound: CCOC(=O)c1c[nH]n2c(=S)ncnc12
system tested: A498 renal
result unit: %
numeric readout: 98.5

Now turn to the next compound.
Please give the measured growth for this compound: C#CCC(C(=O)OCC)C(=O)OCC
94.6

* * *

- Tested on: MCF7 breast
- test protocol: NCI-60 one-dose screen, 48 h (100 = growth as untreated, 0 = no growth, -100 = all killed)
- test parameters: 10 µM unless noted
The panel holds about 83,000 compounds, 20% with a hit somewhere; the sample as a whole holds those more often.
I'd appreciate it if you could supply growth values for the items below.
Give bare numbers, in %.

Known results for compounds:
compound: C[C@@H]1C[C@H]2C(=O)O[C@@H](C)[C@H](NC(=O)[C@H](Cc3cc(F)cc(F)c3)NC(=O)Nc3ccc(Cl)cc3F)C(=O)N3C[C@H](O)C[C@H]3C(=O)N3CCN(C)C[C@H]3C(=O)N[C@@H](C)C(=O)N2C1
result unit: %
growth: 23

compound: COc1cc(Cl)cc(-c2nn(C(=O)NS(=O)(=O)c3ccccc3)cc2-c2ccncc2)c1
result unit: %
growth: 99.8

compound: O=C1Cc2c(sc3c(F)cccc23)C(c2ccccc2[N+](=O)[O-])N1 (stereo not drawn)
result unit: %
growth: 81.4

compound: O=C1CC(c2ccc3c(c2)OCO3)Nc2ccccc21 (stereo not drawn)
result unit: %
growth: 15.9

compound: O=[N+]([O-])c1cc([N+](=O)[O-])c(C(F)(F)F)cc1NN=C(c1ccc(O)cc1)c1ccc(O)cc1
result unit: %
growth: -10.1

compound: O=C(Nc1cccnc1)c1ccc2ccc3ccc(C(=O)Nc4cccnc4)nc3c2n1
result unit: %
growth: 28.9

# batch size: 2; output growth per entry
1. COc1cc2c(cc1OCCCCCOc1ccc(-n3c(C)nc4ccccc4c3=O)cc1)N=C[C@@H]1CCCN1C2=O
2. O=C(CSc1nc2ccc([N+](=O)[O-])cc2[nH]1)Nc1cccc(Cl)c1

1: -53.6; 2: 15.3

* * *

- System: HT29 colon
- test protocol: NCI-60 one-dose screen, 48 h
- test parameters: 10 µM unless noted
The panel holds about 83,000 compounds, 20% with a hit somewhere; the sample as a whole holds those more often. Activity calls are given as the source filed them. How the source made its calls: active means growth percent below 10; inactive means the rest.
Lab note: assign the record to one of active, inactive

Please review the following examples before continuing.
smiles str: Clc1ccc2nc(-c3ccc(-c4ccc(/C=N/NC5=NCCN5)cc4)s3)cn2c1
system tested: HT29 colon
group label: inactive
//
smiles str: COc1cc2c(O)n(CCCN3CCOCC3)c3c4cnc5cccc(c(=O)c3c2cc1OC)c54
system tested: HT29 colon
group label: inactive
//
smiles str: Cn1cc(-c2noc(C(=O)c3cn(C)c4ncc(Br)cc34)n2)c2ccccc21
system tested: HT29 colon
group label: inactive

For this compound, state the assay outcome: C=C(C)[C@@H]1CC[C@]2(c3ncc(C)o3)CC[C@]3(C)[C@H](CC[C@@H]4[C@@](C)(CCC#N)[C@H](C(=C)C)CC[C@]43C)[C@@H]12
active
